target-desc: T1, cyno FcRn/b2M (cyno, UniProt Q8SPV9 24-297; Q8SPW0 21-119, biotinylated)
T1 construct: bought recombinant biotinylated protein (Immunitrack ITF05 or ACRO FCM-C82W5); also called cFcRn; cFcRn/cb2M
T1 sequence (Q8SPV9 24-297 limits assumed, chain 1 of 2): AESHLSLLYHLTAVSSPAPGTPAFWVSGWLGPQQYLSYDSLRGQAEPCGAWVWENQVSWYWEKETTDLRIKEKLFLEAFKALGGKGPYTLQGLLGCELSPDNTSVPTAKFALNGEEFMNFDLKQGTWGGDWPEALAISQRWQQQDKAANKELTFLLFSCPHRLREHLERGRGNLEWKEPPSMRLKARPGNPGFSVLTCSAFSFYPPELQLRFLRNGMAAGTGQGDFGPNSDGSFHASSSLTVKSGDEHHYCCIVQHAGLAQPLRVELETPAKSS
T1 sequence (Q8SPW0 21-119 limits assumed, chain 2 of 2): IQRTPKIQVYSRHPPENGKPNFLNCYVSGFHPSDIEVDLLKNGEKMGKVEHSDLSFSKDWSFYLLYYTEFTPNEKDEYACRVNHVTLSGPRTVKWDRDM
protocol-details: SPR off-rate; pH 7.4 vs pH 6.0;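 further: surface plasmon resonance with diluted periplasmic extracts flowed over ligand surfaces, 120 s association and 600–3600 s dissociation at 25 °C, running buffer containing 150 mM NaCl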
measured-quantity: kd ratio pH 7.4/6.0
Numbers only.

Would you please look over these solved cases?
INSERT INTO measurements (binder, recorded_measurement) VALUES
  ('T0263018B11 Y98F (VHH, name in Kabat numbering, FLAG3-His6 tagged) VHH: EVQLVESGGGVVQPGGSLRLSCAASGFTFSSYAMYWVRQAPGKGLEWVSAISSGGGSTDYADSVKGRFTISRDNSKNTLYLQMNSLRPEDTALYYCAADTLFTSLTWYSYWGQGTLVTVSS', 84),
  ('T0263018B11 T96A (VHH, name in Kabat numbering, FLAG3-His6 tagged) VHH: EVQLVESGGGVVQPGGSLRLSCAASGFTFSSYAMYWVRQAPGKGLEWVSAISSGGGSTDYADSVKGRFTISRDNSKNTLYLQMNSLRPEDTALYYCAADALYTSLTWYSYWGQGTLVTVSS', 55),
  ('T0263018B11 A93V (VHH, name in Kabat numbering, FLAG3-His6 tagged) VHH: EVQLVESGGGVVQPGGSLRLSCAASGFTFSSYAMYWVRQAPGKGLEWVSAISSGGGSTDYADSVKGRFTISRDNSKNTLYLQMNSLRPEDTALYYCVADTLYTSLTWYSYWGQGTLVTVSS', 67);

Next, consider the following binder.
q: Sample T0263018B11 T96Y (VHH, name in Kabat numbering, FLAG3-His6 tagged) VHH: EVQLVESGGGVVQPGGSLRLSCAASGFTFSSYAMYWVRQAPGKGLEWVSAISSGGGSTDYADSVKGRFTISRDNSKNTLYLQMNSLRPEDTALYYCAADYLYTSLTWYSYWGQGTLVTVSS — what was its kd ratio pH 7.4/6.0?
a: 50
